test system: ALL-SIL; assay: selective drug sensitivity score (sDSS, relative to normal bone marrow) (sDSS (score)); higher = more potent and effective on the cell line relative to normal bone marrow cells; settings: 72 h;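 note: ALL cell lines in 384-well plates, five doses spanning 10,000-fold, each plate scaled between vehicle and 100 µmol/L benzalkonium chloride controls, sDSS an adapted area-under-curve metric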

| compound | measured-on | selective drug sensitivity score |
| --- | --- | --- |
| Cn1nccc1Nc1nccc(-c2ccn([C@H](CO)c3ccc(Cl)c(F)c3)c(=O)c2)n1 [Ravoxertinib] (top concentration 10000 nM) | ALL-SIL | -3.2 |
| Cc1cc(-c2nc(-c3ccc(OC(F)(F)F)cc3)no2)nn1Cc1ccnc(N2CCN(C3CC3)CC2)c1 [BAY_87-2243] (top concentration 1000 nM) | ALL-SIL | 10.1 |
| COc1cc([C@@H]2c3cc4c(cc3[C@@H](O[C@@H]3O[C@@H]5CO[C@@H](c6cccs6)O[C@H]5[C@H](O)[C@H]3O)[C@H]3COC(=O)[C@H]23)OCO4)cc(OC)c1O [Teniposide] (top concentration 10000 nM) | ALL-SIL | 0 |
| Nc1cccc2c1CN(C1CCC(=O)NC1=O)C2=O (configuration not stated) [Lenalidomide] (top concentration 100000 nM) | ALL-SIL | -0.88 |
| Nc1ccn([C@@H]2O[C@H](CO)[C@@H](O)[C@@H]2O)c(=O)n1 [Cytarabine] (top concentration 10000 nM) | ALL-SIL | 15.1 |
| COc1cccc(OCCCN)c1-c1cc(Nc2cnc(C#N)cn2)n[nH]1 [Prexasertib] (top concentration 10000 nM) | ALL-SIL | 20.8 |
| COc1cccc2c1C(=O)c1c(O)c3c(c(O)c1C2=O)C[C@@](O)(C(=O)CO)C[C@@H]3O[C@H]1C[C@H](N)[C@H](O)[C@H](C)O1 [Doxorubicin] (top concentration 1000 nM) | ALL-SIL | 1.68 |

###

system: KASUMI-10; test: selective drug sensitivity score (sDSS, relative to normal bone marrow) (sDSS (score)); higher = more potent and effective on the cell line relative to normal bone marrow cells; conditions: 72 h
The following molecules are listed with their measured selective drug sensitivity score values.
measured-endpoint: selective drug sensitivity score

| molecule | measured-endpoint | value-reported |
| --- | --- | --- |
| CCN(CC)Cc1ccc2cc(COC(=O)Nc3ccc(C(=O)NO)cc3)ccc2c1 [Givinostat] (top concentration 1000 nM) | selective drug sensitivity score | 4.7 |
| Sc1ncnc2nc[nH]c12 [Mercaptopurine] (top concentration 10000 nM) | selective drug sensitivity score | 6.9 |
| Cc1cc(Nc2ncc(Cl)c(Nc3ccccc3S(=O)(=O)C(C)C)n2)c(OC(C)C)cc1C1CCNCC1 [Ceritinib] (top concentration 2500 nM) | selective drug sensitivity score | 0.36 |
| C#Cc1cccc(Nc2ncnc3cc4c(cc23)OCCOCCOCCO4)c1 [Icotinib] (top concentration 10000 nM) | selective drug sensitivity score | 0 |

###

test system: MN-60; test: selective drug sensitivity score (sDSS, relative to normal bone marrow) (sDSS (score)); higher = more potent and effective on the cell line relative to normal bone marrow cells; details: 72 h
Decision: selective drug sensitivity score >= -0.04 yields yes (1), all other cases yield no (0).

| compound | measured-on | assigned-label |
| --- | --- | --- |
| COc1ccccc1S(=O)(=O)Nc1ccc2c(c1)CN(C)C(=O)N2 [PFI-1] (top concentration 30000 nM) | MN-60 | yes (1) |
| Sc1ncnc2nc[nH]c12 [Mercaptopurine] (top concentration 10000 nM) | MN-60 | yes (1) |
| C=CC(=O)N1CCC[C@@H](n2nc(-c3ccc(Oc4ccccc4)cc3)c3c(N)ncnc32)C1 [Ibrutinib] (top concentration 1000 nM) | MN-60 | yes (1) |
| Cn1ncc(Cl)c1-c1cc(C(=O)N[C@H](CN)Cc2cccc(F)c2)sc1Cl [Afuresertib] (top concentration 1000 nM) | MN-60 | no (0) |
| NCC(=O)Nc1ccc(-n2nc(C(F)(F)F)cc2-c2ccc3c(ccc4ccccc43)c2)cc1 (top concentration 25000 nM) | MN-60 | yes (1) |
| CN1CC[C@H](c2c(O)cc(O)c3c(=O)cc(-c4ccccc4Cl)oc23)[C@H](O)C1 [Alvocidib] (top concentration 10000 nM) | MN-60 | no (0) |
| O=C(NC1CCNCC1)c1n[nH]cc1NC(=O)c1c(Cl)cccc1Cl [AT7519] (top concentration 10000 nM) | MN-60 | no (0) |
| COC(=O)c1ccc2c(c1)NC(=O)/C2=C(\Nc1ccc(N(C)C(=O)CN2CCN(C)CC2)cc1)c1ccccc1 [Nintedanib] (top concentration 10000 nM) | MN-60 | no (0) |
